biological target: KRAS G12S (Homo sapiens (Human), UniProt P01116+P62937, G12S); assay: Ras-Raf (BRAF RBD) disruption / FRET / MOA assay, KRAS G12S; format: biochemical; details: Ras-Raf disruption/FRET/MOA assay; class symbols; read-out: KRAS G12S FRET data IC50
Sequence (P01116-2 other isoform, or with tags, fused parts or gaps G12S): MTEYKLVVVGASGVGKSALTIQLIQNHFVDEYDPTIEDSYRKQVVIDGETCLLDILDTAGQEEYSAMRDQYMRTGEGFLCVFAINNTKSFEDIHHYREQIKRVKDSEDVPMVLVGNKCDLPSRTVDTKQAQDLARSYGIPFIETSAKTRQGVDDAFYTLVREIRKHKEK
Sequence (P62937 whole entry): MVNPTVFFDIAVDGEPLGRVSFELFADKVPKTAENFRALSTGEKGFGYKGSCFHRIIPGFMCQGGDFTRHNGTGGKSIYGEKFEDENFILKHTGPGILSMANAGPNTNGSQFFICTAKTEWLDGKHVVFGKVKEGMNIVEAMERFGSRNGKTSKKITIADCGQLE
I'd appreciate it if you could supply IC50 values for the items below.

Given C=CC(=O)N1CC[C@H](C(=O)N(C)[C@H](C(=O)N[C@H]2CC3=NN=C(O3)c3ccc4c(c3)c(c(-c3cccnc3[C@H](C)OC)n4CC)CC(C)(C)COC(=O)[C@@H]3CCCN(N3)C2=O)C(C)C)C1 (atropisomer, axis not shown) , state its recorded IC50.
1000 to 10000 nM

Given C=CC(=O)N1CC[C@H](C(=O)N(C)[C@H](C(=O)N[C@H]2Cc3cc(O)cc(c3)-c3ccc4c(c3)c(c(-c3ccc(CN(C)C)c(COC)c3)n4CC)CC(C)(C)COC(=O)[C@@H]3CCCN(N3)C2=O)C(C)C)C1 , state its recorded IC50.
1000 to 10000 nM

Given C=CC(=O)N(C)[C@H]1CN(C(=O)N(C)[C@H](C(=O)N[C@H]2Cc3nc(cs3)-c3ccc4c(c3)c(c(-c3cccnc3[C@H](C)OC)n4CC)CC(C)(C)COC(=O)[C@@H]3CCCN(N3)C2=O)C(C)C)C[C@H]1F (atropisomer, axis not shown) , state its recorded IC50.
100 to 1000 nM

Given C=CC(=O)N1C[C@H](C)N(C(=O)N(C)[C@H](C(=O)N[C@H]2Cc3nc(cs3)-c3ccc4c(c3)c(c(-c3cccnc3[C@H](C)OC)n4CC)CC(C)(C)COC(=O)[C@@H]3CCCN(N3)C2=O)C(C)C)CC12CC2 (atropisomer, axis not shown) , state its recorded IC50.
100 to 1000 nM
